Here, each record is paired with measured pIC50 data.
assayedTarget: p38 (Homo sapiens, UniProt Q16539)
Construct: made in house; host or cells: Trichoplusia ni (Tn-368) High-Five insect cells infected with recombinant baculovirus (virus made in Sf9)
Sequence (Q16539 whole entry): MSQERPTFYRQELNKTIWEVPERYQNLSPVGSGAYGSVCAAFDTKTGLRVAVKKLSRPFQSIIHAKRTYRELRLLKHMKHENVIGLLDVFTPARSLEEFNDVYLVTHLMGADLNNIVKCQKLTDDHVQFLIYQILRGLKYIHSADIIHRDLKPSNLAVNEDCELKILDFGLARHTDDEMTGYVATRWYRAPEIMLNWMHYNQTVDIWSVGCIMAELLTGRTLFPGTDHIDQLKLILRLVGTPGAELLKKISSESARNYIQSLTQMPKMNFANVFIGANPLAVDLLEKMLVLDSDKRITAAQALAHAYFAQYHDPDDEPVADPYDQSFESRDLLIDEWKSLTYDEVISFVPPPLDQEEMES
testDetails: p38 inhibition assay: inhibition of phosphorylation of EGF receptor peptide
Format: biochemical
experimentalConditions: activated p38 (5 nM), EGF receptor peptide 200 μM, ATP 100 μM, 30 min at 30° C., pH 7.6, HPLC
pIC50: −log10 of the molar value.
measurementType: pIC50

COc1cc(OC)c(NC(=O)Nc2ccccc2O)cc1Cl [Compound 28]: 5.13
COc1cc(OC)c(NC(=O)Nc2ccc3c(c2)OCO3)cc1Cl [Compound 40]: 5.82
COc1cc(OC)c(NC(=O)Nc2ccc(Oc3ccccc3)cc2)cc1Cl [Compound 20]: 5.10
Cc1cc(Cl)c([N+](=O)[O-])cc1NC(=O)Nc1ccccc1 [Compound 3]: 6.43
COc1cc(OC)c(NC(=O)Nc2cc(C)ccc2Cl)cc1Cl [Compound 37]: 5.29
COc1cc([N+](=O)[O-])c(C)cc1NC(=O)Nc1ccccc1 [Compound 13]: 6.85
COc1cc(OC)c(NC(=O)Nc2cccc(Oc3ccccc3)c2)cc1Cl [Compound 22]: 5.72
O=C(Nc1ccc(Cl)c(Cl)c1)Nc1cccc2cccnc12 [Compound 131]: 5.20
COc1cc(OC)c(NC(=O)Nc2ccc(F)cc2)cc1Cl [Compound 29]: 5.84
COc1cc(OC)c(NC(=O)Nc2ccc(F)c(F)c2)cc1Cl [Compound 33]: 5.74
